Target: UniProt Q12809
Sequence (Q12809 whole entry): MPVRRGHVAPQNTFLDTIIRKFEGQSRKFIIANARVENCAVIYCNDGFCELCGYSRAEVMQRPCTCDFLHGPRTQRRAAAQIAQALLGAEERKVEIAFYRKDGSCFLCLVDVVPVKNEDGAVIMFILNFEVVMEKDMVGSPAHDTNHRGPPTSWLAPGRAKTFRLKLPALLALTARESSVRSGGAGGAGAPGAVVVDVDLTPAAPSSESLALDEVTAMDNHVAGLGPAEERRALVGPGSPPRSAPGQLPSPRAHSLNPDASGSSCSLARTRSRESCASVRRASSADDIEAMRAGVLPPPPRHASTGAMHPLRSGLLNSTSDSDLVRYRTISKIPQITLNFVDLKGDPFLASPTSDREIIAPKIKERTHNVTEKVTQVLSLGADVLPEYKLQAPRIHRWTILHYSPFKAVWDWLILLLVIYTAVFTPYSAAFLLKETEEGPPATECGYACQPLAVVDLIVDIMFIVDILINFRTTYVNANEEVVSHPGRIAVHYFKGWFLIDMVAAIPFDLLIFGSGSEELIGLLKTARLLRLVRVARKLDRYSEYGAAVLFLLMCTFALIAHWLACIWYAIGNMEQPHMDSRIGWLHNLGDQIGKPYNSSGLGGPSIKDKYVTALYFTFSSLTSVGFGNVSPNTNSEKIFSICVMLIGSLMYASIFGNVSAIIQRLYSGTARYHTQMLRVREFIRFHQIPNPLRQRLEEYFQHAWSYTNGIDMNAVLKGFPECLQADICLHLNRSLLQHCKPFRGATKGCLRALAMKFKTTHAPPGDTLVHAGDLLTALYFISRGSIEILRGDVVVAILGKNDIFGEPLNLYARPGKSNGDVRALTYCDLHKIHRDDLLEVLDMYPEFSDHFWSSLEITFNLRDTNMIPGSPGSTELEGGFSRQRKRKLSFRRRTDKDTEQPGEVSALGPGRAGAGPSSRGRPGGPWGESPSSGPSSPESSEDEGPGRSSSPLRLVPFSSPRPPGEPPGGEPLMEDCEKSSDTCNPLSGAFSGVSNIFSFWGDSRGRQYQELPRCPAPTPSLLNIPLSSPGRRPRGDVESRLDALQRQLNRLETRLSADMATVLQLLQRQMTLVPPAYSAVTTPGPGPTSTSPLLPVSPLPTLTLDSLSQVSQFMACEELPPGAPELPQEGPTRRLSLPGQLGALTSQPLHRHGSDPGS
Readout name: IC50

Q: Given the entry CCO[C@H]1CN([C@H]2CC[C@@](O)(c3ccc4c(c3)OCO4)CC2)C[C@@H]1NC(=O)CNC(=O)c1cccc(C(F)(F)F)c1 , what IC50 was observed with UniProt Q12809?
A: 13 µM

----------
Assay: Cmax in CD-1 mouse at 10 mg/kg, po
Format: ADME, organism-based
Set-up: dose 10 mg/kg, route oral
Settings: in vivo
Readout name: Cmax (nM)
Write down the numeric answer in nM and omit the unit.

Q: Could you share which Cmax value was measured for CCO[C@H]1CN([C@H]2CC[C@@](O)(c3ccc4c(c3)OCO4)CC2)C[C@@H]1NC(=O)CNC(=O)c1cccc(C(F)(F)F)c1 ?
A: 1890

Value source: ChEMBL document CHEMBL1287724
